# SYSTEM UNDER TEST: CDK7/Cyclin H/MNAT1 (Homo sapiens)
# Sequence (P50613 whole entry): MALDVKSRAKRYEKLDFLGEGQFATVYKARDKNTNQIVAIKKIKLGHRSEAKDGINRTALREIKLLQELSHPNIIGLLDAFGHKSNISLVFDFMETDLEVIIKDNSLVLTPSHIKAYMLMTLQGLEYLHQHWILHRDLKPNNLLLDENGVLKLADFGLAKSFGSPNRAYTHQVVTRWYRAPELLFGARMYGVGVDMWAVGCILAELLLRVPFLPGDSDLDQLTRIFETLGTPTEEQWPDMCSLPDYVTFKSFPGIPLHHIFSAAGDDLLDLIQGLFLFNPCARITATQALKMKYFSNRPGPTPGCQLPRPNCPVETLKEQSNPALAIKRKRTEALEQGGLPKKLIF
# Sequence (P51946 whole entry partner): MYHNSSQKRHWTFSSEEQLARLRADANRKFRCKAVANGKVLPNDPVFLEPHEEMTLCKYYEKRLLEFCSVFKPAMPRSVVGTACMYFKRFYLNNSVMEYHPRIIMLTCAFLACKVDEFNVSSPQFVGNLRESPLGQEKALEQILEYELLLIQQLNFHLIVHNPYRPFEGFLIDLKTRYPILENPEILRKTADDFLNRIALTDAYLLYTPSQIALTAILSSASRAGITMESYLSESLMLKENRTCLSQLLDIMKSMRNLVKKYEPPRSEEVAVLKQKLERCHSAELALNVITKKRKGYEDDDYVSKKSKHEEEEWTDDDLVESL
# Sequence (P51948 whole entry partner): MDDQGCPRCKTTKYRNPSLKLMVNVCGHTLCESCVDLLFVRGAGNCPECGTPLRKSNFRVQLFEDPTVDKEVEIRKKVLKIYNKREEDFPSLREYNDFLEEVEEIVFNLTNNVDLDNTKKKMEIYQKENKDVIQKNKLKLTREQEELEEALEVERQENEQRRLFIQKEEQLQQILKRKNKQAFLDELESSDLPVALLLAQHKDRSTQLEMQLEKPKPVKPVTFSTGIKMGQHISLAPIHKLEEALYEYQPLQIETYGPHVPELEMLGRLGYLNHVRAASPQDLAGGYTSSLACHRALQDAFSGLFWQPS
# EXPERIMENT SUMMARY: Enzymatic assay for CDK7 (LANCE Ultra kinase assay, FRET based)
# CONDITIONS USED: ATP at Km
ENDPOINT: IC50

Example entries and their recorded answers appear below.
C=C(F)C(=O)Nc1ccc2c(-c3ccccc3CNc3nc(N[C@H]4CC[C@@H](OC)C4)nc4c(C(C)C)cnn34)nccc2c1 [Compound 96]: 100 to 1000 nM
C=CC(=O)Nc1ccc2c(-c3ccccc3CNc3nc(N4CCN(CC(F)(F)F)CC4)nc4c(C(C)C)cnn34)nccc2c1 [Compound 210]: < 100 nM

Give the measured IC50 of C=C(F)C(=O)Nc1ccc2c(-c3ccccc3CNc3nc(NC[C@H]4CCN(C(C)C)C[C@@H]4O)nc4c(C(C)C)cnn34)nccc2c1 [Compound 168] .
< 100 nM

Give the measured IC50 of C=CC(=O)Nc1ccc2c(-c3ccccc3CNc3cc(NC4CCC(F)(F)CC4)nc4c(C(C)C)cnn34)nccc2c1 [Compound 186] .
< 100 nM

Give the measured IC50 of C=C(C)C(=O)Nc1ccc2c(-c3ccccc3CNc3nc(OC4CCC(C)(C)NC4)nc4c(C(C)C)cnn34)nccc2c1 (stereo not shown) [Compound 190] .
< 100 nM

Give the measured IC50 of C=C(F)C(=O)Nc1ccc2c(-c3ccccc3CNc3cc(N4CCC(OC)CC4)nc4c(C(C)C)cnn34)nccc2c1 [Compound 91] .
100 to 1000 nM

Give the measured IC50 of C=C(C)C(=O)Nc1ccc2c(-c3ccccc3CNc3nc(NC4CCC(C)(C)NC4)nc4c(C(C)C)cnn34)nccc2c1 (stereo not shown) [Compound 181] .
< 100 nM
